meta.source: patent US6338854B1

System: Hartley guinea pigs
measurement-description: Allergy test (maximization method)
Assay type: in vivo
condition-summary: 0.3%-sensitized group; skin reaction 24 hours after patch removal; scale 0-4
Reported Evaluation Score (Average), 0.3%-induced group values for a set of compounds
experimental-endpoint: Evaluation Score (Average), 0.3%-induced group

compound="C[C@H]1[C@H](C)CC[C@]2(C(=O)O)CC[C@]3(C)C(=CC[C@@H]4[C@@]5(C)CC[C@H](OC(=O)CCc6ccccc6)C(C)(C)[C@@H]5CC[C@]43C)[C@H]12 [Phenylpropionyl ursolate, phenylpropionyl ursolate]" measured_result=0
compound="COc1ccc(COC(=O)[C@]23CCC(C)(C)C[C@H]2C2=CC[C@@H]4[C@@]5(C)CC[C@H](O)C(C)(C)[C@@H]5CC[C@@]4(C)[C@]2(C)CC3)cc1 [Methoxybenzyl oleanolate, methoxybenzyl oleanolate]" measured_result=0
compound="C[C@H]1[C@H](C)CC[C@]2(C(=O)OCc3ccccc3)CC[C@]3(C)C(=CC[C@@H]4[C@@]5(C)CC[C@H](O)C(C)(C)[C@@H]5CC[C@]43C)[C@H]12 [Benzyl ursolate, benzyl ursolate]" measured_result=0.17
compound="CC1(C)CC[C@]2(C(=O)O)CC[C@]3(C)C(=CC[C@@H]4[C@@]5(C)CC[C@H](OC(=O)c6ccccc6)C(C)(C)[C@@H]5CC[C@]43C)[C@@H]2C1 [Benzoyl oleanolate, benzoyl oleanolate]" measured_result=0

###

Test system: Hartley guinea pigs
measurement-description: Allergy test (maximization method)
Assay type: in vivo
condition-summary: Olive oil-challenge patch; skin reaction 24 hours after patch removal; scale 0-4
Excerpt: Allergy tests of benzyl ursolate, methoxybenzyl oleanolate, phenylbenzyl betulate, benzoyl oleanolate, methoxybenzoyl betulate, and phenylpropionyl ursolate obtained in the above-described Production Examples were made using Hartley guinea pigs (300 to 500 g, female) as test animals. […]
experimental-endpoint: Evaluation Score (Average), 3%-induced group

molecule="C[C@H]1[C@H](C)CC[C@]2(C(=O)O)CC[C@]3(C)C(=CC[C@@H]4[C@@]5(C)CC[C@H](OC(=O)CCc6ccccc6)C(C)(C)[C@@H]5CC[C@]43C)[C@H]12 [Phenylpropionyl ursolate, phenylpropionyl ursolate]" measured_result=0
molecule="CC1(C)CC[C@]2(C(=O)O)CC[C@]3(C)C(=CC[C@@H]4[C@@]5(C)CC[C@H](OC(=O)c6ccccc6)C(C)(C)[C@@H]5CC[C@]43C)[C@@H]2C1 [Benzoyl oleanolate, benzoyl oleanolate]" measured_result=0
molecule="COc1ccc(COC(=O)[C@]23CCC(C)(C)C[C@H]2C2=CC[C@@H]4[C@@]5(C)CC[C@H](O)C(C)(C)[C@@H]5CC[C@@]4(C)[C@]2(C)CC3)cc1 [Methoxybenzyl oleanolate, methoxybenzyl oleanolate]" measured_result=0.17
molecule="C[C@H]1[C@H](C)CC[C@]2(C(=O)OCc3ccccc3)CC[C@]3(C)C(=CC[C@@H]4[C@@]5(C)CC[C@H](O)C(C)(C)[C@@H]5CC[C@]43C)[C@H]12 [Benzyl ursolate, benzyl ursolate]" measured_result=0

###

System: Hartley guinea pigs
measurement-description: Allergy test (maximization method)
Format: in vivo
condition-summary: Olive oil-sensitized group; skin reaction 24 hours after patch removal; scale 0-4
Reported Evaluation Score (Average), 0.3%-induced group values for a set of compounds
experimental-endpoint: Evaluation Score (Average), 0.3%-induced group

compound="COc1ccc(COC(=O)[C@]23CCC(C)(C)C[C@H]2C2=CC[C@@H]4[C@@]5(C)CC[C@H](O)C(C)(C)[C@@H]5CC[C@@]4(C)[C@]2(C)CC3)cc1 [Methoxybenzyl oleanolate, methoxybenzyl oleanolate]" measured_result=0.17
compound="CC1(C)CC[C@]2(C(=O)O)CC[C@]3(C)C(=CC[C@@H]4[C@@]5(C)CC[C@H](OC(=O)c6ccccc6)C(C)(C)[C@@H]5CC[C@]43C)[C@@H]2C1 [Benzoyl oleanolate, benzoyl oleanolate]" measured_result=0
compound="C[C@H]1[C@H](C)CC[C@]2(C(=O)O)CC[C@]3(C)C(=CC[C@@H]4[C@@]5(C)CC[C@H](OC(=O)CCc6ccccc6)C(C)(C)[C@@H]5CC[C@]43C)[C@H]12 [Phenylpropionyl ursolate, phenylpropionyl ursolate]" measured_result=0
compound="C[C@H]1[C@H](C)CC[C@]2(C(=O)OCc3ccccc3)CC[C@]3(C)C(=CC[C@@H]4[C@@]5(C)CC[C@H](O)C(C)(C)[C@@H]5CC[C@]43C)[C@H]12 [Benzyl ursolate, benzyl ursolate]" measured_result=0

###

Tested on: Hartley guinea pigs
measurement-description: Allergy test (maximization method)
Type: in vivo
condition-summary: 0.3%-challenge patch; skin reaction 24 hours after patch removal; scale 0-4
experimental-endpoint: Evaluation Score (Average), 3%-induced group

compound="C[C@H]1[C@H](C)CC[C@]2(C(=O)O)CC[C@]3(C)C(=CC[C@@H]4[C@@]5(C)CC[C@H](OC(=O)CCc6ccccc6)C(C)(C)[C@@H]5CC[C@]43C)[C@H]12 [Phenylpropionyl ursolate, phenylpropionyl ursolate]" measured_result=0.17
compound="CC1(C)CC[C@]2(C(=O)O)CC[C@]3(C)C(=CC[C@@H]4[C@@]5(C)CC[C@H](OC(=O)c6ccccc6)C(C)(C)[C@@H]5CC[C@]43C)[C@@H]2C1 [Benzoyl oleanolate, benzoyl oleanolate]" measured_result=0
compound="COc1ccc(COC(=O)[C@]23CCC(C)(C)C[C@H]2C2=CC[C@@H]4[C@@]5(C)CC[C@H](O)C(C)(C)[C@@H]5CC[C@@]4(C)[C@]2(C)CC3)cc1 [Methoxybenzyl oleanolate, methoxybenzyl oleanolate]" measured_result=0
compound="C[C@H]1[C@H](C)CC[C@]2(C(=O)OCc3ccccc3)CC[C@]3(C)C(=CC[C@@H]4[C@@]5(C)CC[C@H](O)C(C)(C)[C@@H]5CC[C@]43C)[C@H]12 [Benzyl ursolate, benzyl ursolate]" measured_result=0

###

Test system: Hartley guinea pigs
measurement-description: Allergy test (maximization method)
Assay type: in vivo
condition-summary: 0.3%-challenge patch; skin reaction 24 hours after patch removal; scale 0-4
experimental-endpoint: Evaluation Score (Average), Olive oil induced group

compound="C[C@H]1[C@H](C)CC[C@]2(C(=O)OCc3ccccc3)CC[C@]3(C)C(=CC[C@@H]4[C@@]5(C)CC[C@H](O)C(C)(C)[C@@H]5CC[C@]43C)[C@H]12 [Benzyl ursolate, benzyl ursolate]" measured_result=0
compound="C[C@H]1[C@H](C)CC[C@]2(C(=O)O)CC[C@]3(C)C(=CC[C@@H]4[C@@]5(C)CC[C@H](OC(=O)CCc6ccccc6)C(C)(C)[C@@H]5CC[C@]43C)[C@H]12 [Phenylpropionyl ursolate, phenylpropionyl ursolate]" measured_result=0
compound="COc1ccc(COC(=O)[C@]23CCC(C)(C)C[C@H]2C2=CC[C@@H]4[C@@]5(C)CC[C@H](O)C(C)(C)[C@@H]5CC[C@@]4(C)[C@]2(C)CC3)cc1 [Methoxybenzyl oleanolate, methoxybenzyl oleanolate]" measured_result=0.17
compound="CC1(C)CC[C@]2(C(=O)O)CC[C@]3(C)C(=CC[C@@H]4[C@@]5(C)CC[C@H](OC(=O)c6ccccc6)C(C)(C)[C@@H]5CC[C@]43C)[C@@H]2C1 [Benzoyl oleanolate, benzoyl oleanolate]" measured_result=0

###

Tested on: Hartley guinea pigs
measurement-description: Allergy test (maximization method)
Assay type: in vivo
condition-summary: 3%-challenge patch; 3 w/v % in olive oil; skin reaction 24 hours after patch removal; scale 0-4
Reported Evaluation Score (Average), 3%-induced group values for a set of molecules
experimental-endpoint: Evaluation Score (Average), 3%-induced group

molecule="C[C@H]1[C@H](C)CC[C@]2(C(=O)OCc3ccccc3)CC[C@]3(C)C(=CC[C@@H]4[C@@]5(C)CC[C@H](O)C(C)(C)[C@@H]5CC[C@]43C)[C@H]12 [Benzyl ursolate, benzyl ursolate]" measured_result=0.17
molecule="CC1(C)CC[C@]2(C(=O)O)CC[C@]3(C)C(=CC[C@@H]4[C@@]5(C)CC[C@H](OC(=O)c6ccccc6)C(C)(C)[C@@H]5CC[C@]43C)[C@@H]2C1 [Benzoyl oleanolate, benzoyl oleanolate]" measured_result=0
molecule="C[C@H]1[C@H](C)CC[C@]2(C(=O)O)CC[C@]3(C)C(=CC[C@@H]4[C@@]5(C)CC[C@H](OC(=O)CCc6ccccc6)C(C)(C)[C@@H]5CC[C@]43C)[C@H]12 [Phenylpropionyl ursolate, phenylpropionyl ursolate]" measured_result=0
molecule="COc1ccc(COC(=O)[C@]23CCC(C)(C)C[C@H]2C2=CC[C@@H]4[C@@]5(C)CC[C@H](O)C(C)(C)[C@@H]5CC[C@@]4(C)[C@]2(C)CC3)cc1 [Methoxybenzyl oleanolate, methoxybenzyl oleanolate]" measured_result=0.33

###

System: Hartley guinea pigs
measurement-description: Allergy test (maximization method)
Format: in vivo
condition-summary: 3%-challenge patch; skin reaction 24 hours after patch removal; scale 0-4
Reported Evaluation Score (Average), Olive oil induced group values for a set of molecules
experimental-endpoint: Evaluation Score (Average), Olive oil induced group

molecule="C[C@H]1[C@H](C)CC[C@]2(C(=O)O)CC[C@]3(C)C(=CC[C@@H]4[C@@]5(C)CC[C@H](OC(=O)CCc6ccccc6)C(C)(C)[C@@H]5CC[C@]43C)[C@H]12 [Phenylpropionyl ursolate, phenylpropionyl ursolate]" measured_result=0
molecule="CC1(C)CC[C@]2(C(=O)O)CC[C@]3(C)C(=CC[C@@H]4[C@@]5(C)CC[C@H](OC(=O)c6ccccc6)C(C)(C)[C@@H]5CC[C@]43C)[C@@H]2C1 [Benzoyl oleanolate, benzoyl oleanolate]" measured_result=0
molecule="COc1ccc(COC(=O)[C@]23CCC(C)(C)C[C@H]2C2=CC[C@@H]4[C@@]5(C)CC[C@H](O)C(C)(C)[C@@H]5CC[C@@]4(C)[C@]2(C)CC3)cc1 [Methoxybenzyl oleanolate, methoxybenzyl oleanolate]" measured_result=0.17
molecule="C[C@H]1[C@H](C)CC[C@]2(C(=O)OCc3ccccc3)CC[C@]3(C)C(=CC[C@@H]4[C@@]5(C)CC[C@H](O)C(C)(C)[C@@H]5CC[C@]43C)[C@H]12 [Benzyl ursolate, benzyl ursolate]" measured_result=0.33
